The measurements presented in this section are drawn from ChEMBL document CHEMBL1157835.

# Test system: MCF-10A
# measurementNotes: Cytotoxicity against human MCF10A cells by MTT assay
# Assay type: functional, cell-based
pIC50: −log10 of the molar value.
Everything with pIC50 lower than 5 is Not satisfied; everything else, including exactly 5, is Satisfied.

Could you verify whether the entry CCCCCCCC[C@@](C)(O)CCc1oc(=O)c(C)c(O)c1C shows pIC50 of no less than 5? Not satisfied

Here is the next compound: CCCCCCCC[C@](C)(O)CCc1oc(=O)c(C)c(O)c1C Not satisfied

Here is the next compound: CCCCCCCCC(C)(O)CCc1oc(C)c(C)c(=O)c1C (racemic) Not satisfied

Here is the next compound: CCCCCCCC[C@](C)(O)CCc1oc(OC)c(C)c(=O)c1C Satisfied

Here is the next compound: CCCCCCCCC(C)(O)CCc1oc(=O)c(C)c(O)c1C (racemic) Not satisfied

Here is the next compound: COc1oc(CC(O)CCCCCCc2ccccc2)c(C)c(=O)c1C (centres undefined) Not satisfied

Here is the next compound: CCCCCCCC[C@@](C)(O)CCc1oc(OC)c(C)c(=O)c1C Satisfied
